I'd be grateful if you could share measured Liver ng/mg 24 h for these entries.
Experiment: Plasma and liver compound levels in mice after oral administration
Assay type: in vivo
Settings: 30 mpk, 24 h

### Prompt I am curious: what Liver ng/mg 24 h value has been reported for CC(C)(C)c1cc(-c2cncc(-c3ccc(C(=O)N4CCC(O)CC4)cc3Cl)c2)ccn1 [Compound Z-725] ?
### Response <100 ng/mg

### Prompt For the compound shown here, CC(C)OC(=O)Nc1ccc(-c2cncc(-c3ccnc(C(C)(C)C)c3)c2)c(Cl)c1 [Compound Z-774] , give the reported Liver ng/mg 24 h.
### Response >1000 ng/mg

### Prompt Bench note: what Liver ng/mg 24 h did CC1(O)CCN(C(=O)c2ccc(-c3cncc(-c4ccnc(C(C)(C)C)c4)c3)c(Cl)c2)CC1 [Compound Z-780] show?
### Response >100 ng/mg

### Prompt Item under review: CC(C)(C)c1cc(-c2cccc(-c3ccc(C(=O)N4CCC(O)CC4)cc3Cl)c2)ccn1 [Compound Z-744] . Reported Liver ng/mg 24 h?
### Response >1000 ng/mg

### Prompt Requested read-out: Liver ng/mg 24 h. Entry: Cc1cc(C(=O)N2CCC(O)CC2)ccc1-c1cncc(-c2ccnc(C(C)(C)C)c2)c1 [Compound Z-817]
### Response <100 ng/mg

### Prompt Which Liver ng/mg 24 h value belongs to CC(C)(C)c1cc(-c2cncc(-c3c(Cl)cc(C(=O)N4CCC(O)CC4)cc3Cl)c2)ccn1 [Z-826] ?
### Response >1000 ng/mg
